Listed here: items and their measured logD.
assay-remarks: Lipophilicity, logD of the compound at pH 7.4 by UPHLC analysis
Format: physicochemical
condition-info: buffer

Form field logD, entry O=C1N[C@]2(CO1)C[C@H](C(=O)N1CCC(COc3ccc(F)cc3Cl)CC1)C2 : 2.6

Form field logD, entry O=C1COc2ncc(C(=O)N3CCC(COc4ccc(F)cc4Cl)CC3)cc2N1 : 3

Form field logD, entry CCC(Oc1ccc(F)cc1Cl)C1CCN(C(=O)[C@H]2C[C@]3(COC(=O)N3)C2)CC1 (stereo not given in full) : 3.1

Next:
Form field logD, entry O=C1CC[C@@H](CCC(=O)N2CCC(COc3ccc(F)cc3Cl)CC2)N1 : 2.7

Form field logD, entry Cc1ccc(COC2CN(C(=O)[C@H]3C[C@]4(COC(=O)N4)C3)C2)cc1Cl : 2.3

Form field logD, entry O=C1N[C@]2(CO1)C[C@H](C(=O)N1CC(OCc3ccc(Cl)cc3Cl)C1)C2 : 2.5

Form field logD, entry O=C1N[C@]2(CO1)C[C@H](C(=O)N1CC(OCc3ccc(C(F)(F)F)c(Cl)c3)C1)C2 : 2.4

Form field logD, entry O=C1CCC(COC(=O)N2CCC(COc3ccc(F)cc3Cl)CC2)N1 (stereo not given) : 2.7

---

assay-remarks: Drug uptake in C57BL/6J Jcl mouse assessed as brain concentration at 0.3 mg/kg, po measured after 60 mins by LC-MS/MS analysis
Format: ADME, organism-based
condition-info: read-out: Drug uptake
measure-name: concentration at 1 h

Form field concentration at 1 h, entry Cc1ccc(COC2CN(C(=O)[C@H]3C[C@]4(COC(=O)N4)C3)C2)cc1Cl : 99 ng/g

---

assay-remarks: Lipophilicity, logD of the compound at pH 7.4 by UPHLC analysis
Assay type: physicochemical
condition-info: buffer
measure-name: logD
The answer should be a number; do not append a unit.

Form field logD, entry O=C1CCC(CCC(=O)N2CCC(COc3ccc(F)cc3Cl)CC2)N1 (configuration not stated) : 3

Form field logD, entry CC(Oc1ccc(F)cc1Cl)C1CCN(C(=O)[C@H]2C[C@]3(COC(=O)N3)C2)CC1 (some centres not stated) : 2.8

---

Listed here: items and their measured logD.
assay-remarks: Lipophilicity, logD of the compound at pH 7.4 by UPHLC analysis
Assay type: physicochemical
condition-info: buffer
The answer should be a number; do not append a unit.

Form field logD, entry O=C1CC[C@H](CCC(=O)N2CCC(COc3ccc(F)cc3Cl)CC2)N1 : 2.7

Form field logD, entry Cc1cc(COC2CN(C(=O)[C@H]3C[C@]4(COC(=O)N4)C3)C2)ccc1Cl : 2.4

Form field logD, entry O=C1N[C@]2(CO1)C[C@H](C(=O)N1CC(OCc3ccc(C(F)(F)F)c(C(F)(F)F)c3)C1)C2 : 2.5

Form field logD, entry O=C1CCC2(CCCN(C(=O)N3CCC(COc4ccc(F)cc4Cl)CC3)C2)N1 (stereo not given) : 3.1

Here's the next entry for you.
Form field logD, entry O=C1COCC(CCC(=O)N2CCC(COc3ccc(F)cc3Cl)CC2)N1 (stereo not given) : 2.7
